Answer each item with its documented MFI.
TARGET ENTITY: monkey DLL3 on CHO-K1-cyno DLL3 cells (cynomolgus monkey)
Sequence (chain, as listed by the source limits assumed): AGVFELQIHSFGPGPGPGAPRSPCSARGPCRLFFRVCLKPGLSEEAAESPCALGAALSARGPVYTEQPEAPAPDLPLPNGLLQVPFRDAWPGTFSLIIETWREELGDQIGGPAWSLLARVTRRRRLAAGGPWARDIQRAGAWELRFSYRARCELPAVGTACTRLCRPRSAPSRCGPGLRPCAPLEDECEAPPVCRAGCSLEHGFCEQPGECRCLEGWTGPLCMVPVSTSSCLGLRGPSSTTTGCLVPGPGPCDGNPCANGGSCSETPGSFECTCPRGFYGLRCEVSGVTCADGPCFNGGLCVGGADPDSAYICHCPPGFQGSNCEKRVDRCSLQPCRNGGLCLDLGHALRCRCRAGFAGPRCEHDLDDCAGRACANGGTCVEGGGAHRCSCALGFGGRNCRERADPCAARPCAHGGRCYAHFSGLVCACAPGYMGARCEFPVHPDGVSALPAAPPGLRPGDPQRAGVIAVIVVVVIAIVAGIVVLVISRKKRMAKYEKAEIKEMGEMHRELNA
METHOD SUMMARY: FACS, CHO-K1-cyno DLL3 cells, 0.00128 nM antibody
Answer format: numeric, MFI implied, no suffix.

Documented MFI of Hab008L3H2a-hFc (scFv, part only; not given: VL-VH linker and human IgG1 Fc, V domains shown, not shown: another chain or arm of the molecule; a dimerising Fc or GST; small tags and cut ends) VL: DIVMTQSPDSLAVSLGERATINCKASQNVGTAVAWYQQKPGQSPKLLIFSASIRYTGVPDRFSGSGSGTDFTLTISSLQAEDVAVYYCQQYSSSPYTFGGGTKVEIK VH: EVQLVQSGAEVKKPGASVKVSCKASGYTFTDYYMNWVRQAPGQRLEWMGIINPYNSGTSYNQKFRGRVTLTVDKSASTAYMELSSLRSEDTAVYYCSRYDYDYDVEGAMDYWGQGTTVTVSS : 103

Record Hab015VL5VH1a-hFc (scFv, part only; not given: scFv linker and human IgG1 Fc, V domains shown, not shown: another chain or arm of the molecule; a dimerising Fc or GST; small tags and cut ends) VL: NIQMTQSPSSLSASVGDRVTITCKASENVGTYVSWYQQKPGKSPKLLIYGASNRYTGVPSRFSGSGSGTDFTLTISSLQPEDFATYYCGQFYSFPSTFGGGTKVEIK VH: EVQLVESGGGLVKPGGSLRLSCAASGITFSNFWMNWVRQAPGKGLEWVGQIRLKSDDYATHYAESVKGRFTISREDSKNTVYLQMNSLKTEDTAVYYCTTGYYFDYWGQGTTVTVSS , field MFI: 131

Noted for Hab008L3H5-hFc (scFv, part only; not given: scFv linker and human IgG1 Fc, V domains shown, not shown: another chain or arm of the molecule; a dimerising Fc or GST; small tags and cut ends) VL: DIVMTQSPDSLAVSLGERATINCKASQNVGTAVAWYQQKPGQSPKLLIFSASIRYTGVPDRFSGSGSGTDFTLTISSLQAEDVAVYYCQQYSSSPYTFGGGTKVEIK VH: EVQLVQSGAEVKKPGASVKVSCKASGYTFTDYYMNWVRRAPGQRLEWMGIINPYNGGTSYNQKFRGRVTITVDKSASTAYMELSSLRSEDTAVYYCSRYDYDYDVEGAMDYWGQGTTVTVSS : its MFI reads 103

Entry Hab014VL1VH2-hFc (scFv, part only; not given: VL-VH linker and human IgG1 Fc, V domains shown, not shown: another chain or arm of the molecule; a dimerising Fc or GST; small tags and cut ends) VL: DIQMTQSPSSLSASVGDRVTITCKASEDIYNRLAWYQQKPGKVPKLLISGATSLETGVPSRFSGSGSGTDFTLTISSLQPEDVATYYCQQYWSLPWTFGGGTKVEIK VH: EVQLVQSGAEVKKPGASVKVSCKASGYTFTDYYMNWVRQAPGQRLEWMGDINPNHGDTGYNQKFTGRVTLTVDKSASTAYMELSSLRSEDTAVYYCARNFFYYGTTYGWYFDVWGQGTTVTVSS , MFI reported as 215
